Reference for the values: ChEMBL document CHEMBL5550210

The following molecules are shown together with reported MIC values.
System: Candida albicans
procedureText: Antifungal activity against fluconazole-resistant Candida albicans 632 assessed as inhibition of fungal growth by CLSI based microdilution method
Format: functional
Response body: numeric value in µg/mL, unit text excluded.

CCCCNC(=O)/C=C/c1ccc(COC(Cn2ccnc2)c2ccc(Cl)cc2Cl)cc1 (configuration not stated) | 0.25

Query :: Reported MIC, molecule O=C(/C=C/c1ccc(COC(Cn2ccnc2)c2ccc(Cl)cc2Cl)cc1)Nc1ccc(F)cc1 (configuration not stated) : ____
Result :: 0.25

Query :: Reported MIC, molecule COc1ccc(NC(=O)/C=C/c2ccc(COC(Cn3ccnc3)c3ccc(Cl)cc3Cl)cc2)cc1 (configuration not stated) : ____
Result :: 0.25

Query :: Reported MIC, molecule O=C(/C=C/c1ccc(COC(Cn2ccnc2)c2ccc(Cl)cc2Cl)cc1)Nc1ccc(Cl)cc1 (configuration not stated) : ____
Result :: 0.5

Query :: Reported MIC, molecule O=C(/C=C/c1ccc(COC(Cn2ccnc2)c2ccc(Cl)cc2Cl)cc1)Nc1ccc(C(F)(F)F)cc1 (configuration not stated) : ____
Result :: 2

Query :: Reported MIC, molecule O=C(/C=C/c1ccc(COC(Cn2ccnc2)c2ccc(Cl)cc2Cl)cc1)Nc1ccccc1 (configuration not stated) : ____
Result :: 0.25

Query :: Reported MIC, molecule O=C(/C=C/c1ccc(COC(Cn2ccnc2)c2ccc(Cl)cc2Cl)cc1)Nc1ccc(Br)cc1 (configuration not stated) : ____
Result :: 4
